# Tgt: Nonstructural protein 3 (Zika virus, UniProt A0A024AXB9)
# Sequence (A0A024AXB9 whole entry): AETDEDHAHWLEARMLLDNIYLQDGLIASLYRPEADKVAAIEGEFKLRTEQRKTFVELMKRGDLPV
# Experiment summary: Functional biochemical assay to identify treatments for viral infectious disease that targets Zika NS2B-NS3 protease. Utilizing a direct enzyme activity measurement method, reading the fluorescence intensity is used to characterize the relative potency of inhibitors as IC50.
# Parameters: species or system PRVABC59
pIC50: −log10 of the molar value.
Property name: pIC50

Entry under review: CCCOc1ccc2[nH]cc(CN3CCC(c4cscn4)CC3)c2c1 . Reported pIC50?
< 4.00

// query pIC50 value for entry COc1cc(Cc2ccc3[nH]ncc3c2)nc(N2CCNCC2)n1
< 4.00

---

# Tgt: Nonstructural protein 3 (Zika virus)
# Experiment summary: Functional biochemical assay to identify treatments for viral infectious disease that targets Zika NS2B-NS3 protease. Utilizing a direct enzyme activity measurement method, reading the fluorescence intensity is used to characterize the relative potency of inhibitors as IC50.
# Set-up: species or system PRVABC59
IC50 for assorted compounds

Recorded results for 4 compounds are shown here.
> print(dat)
                                item.smiles  property.name   reported
1  C[C@H](NC(=O)c1cccc2c1CC(=O)N2)c1nnc2n1CCCC2           IC50    > 25 µM
2  O=C(Nc1cc(Cl)cc(C(=O)Nc2nc3c(s2)CCNC3)c1)OCc1ccccc1           IC50    53.5 µM
3  Cc1cc(OCc2ccccc2)ccc1NS(=O)(=O)c1ccc(Cl)cc1C(=O)O           IC50  > 99.5 µM
4       CCn1c(C)cc(C(=O)Nc2cc(CCCN)ccn2)c1C           IC50    > 25 µM

IC50 lookup needed for Cc1c(C(=O)Nc2cccc(-c3cncnc3O)c2)cc(C2CC2)n1C , thanks.
> 25 µM

Look up IC50 for this compound: CCn1c(=O)c(N2CC[C@H](CO)C2)nc2ccc(C(N)=O)cc21
> 99.5 µM

Bench note: what IC50 did C=CC[C@H]1NCc2cc(N[C@H](C(=O)NC(C)C)c3cc(Cl)cc4[nH]ncc34)ccc21 show?
0.994 µM
